FYI, the data here is from paper PMC6479714.

System: iodothyronine deiodinase 2 (dio2)
Assay: dio2 gene expression (qPCR) in exposed zebrafish embryos
Assay type: in vivo, zebrafish (Danio rerio)
Settings: Danio rerio, read-out: EC50 dio2
ASSAY_METRIC: EC50 (nM)

| MOLECULE | TEST_SYSTEM | REPORTED |
| --- | --- | --- |
| C[C@]12CC[C@H]3[C@@H](CCC4=CC(=O)CC[C@@H]43)[C@@H]1CC[C@@H]2O [NAN, nandrolone] | iodothyronine deiodinase 2 (dio2) | 80 |
